Molecular target: cIAP2-BIR3 (Homo sapiens (Human))
Sequence (Q13489 238-349): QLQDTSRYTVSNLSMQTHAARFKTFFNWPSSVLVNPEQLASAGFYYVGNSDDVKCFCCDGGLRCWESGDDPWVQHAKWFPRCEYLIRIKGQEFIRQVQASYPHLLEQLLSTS
Experiment: BIR binding assay (FRET competition), cIAP2 BIR3
Conditions: fold separation (FS) for cIAP2
Protocol: The BIR domain binding assays are FRET based competition assays that utilize His-tagged versions of each of the BIR2 and BIR3 domains from cIAP1, cIAP2, and XIAP (each domain assayed separately) each at a custom optimal concentration and a probe, 200 nM SMAC/DIABLO peptide […] labelled with AlexaFluor647 (part #crb 1110326h, Discovery Peptides). The assay is conducted in 50 mM HEPES, […], 1 mM CHAPS, 5% Glycerol, 1 mM DTT, in dI water with a final pH of 7.4 and final volume of 20 uL. […]
measureName: cIAP2 BIR3 vs BIR2 separation window

[[record]]
structurestring = "C[C@@H]1CN(CC(=O)N2CC(C)(C)c3[nH]c(=O)c(Cc4c(Cl)cc(Cl)cc4Cl)cc32)[C@@H](CN2CCO[C@H](C(=O)NCc3ccc(CNC(=O)[C@@H]4CN(C[C@H]5CN[C@H](C)CN5CC(=O)N5CC(C)(C)c6[nH]c(=O)c(Cc7c(Cl)cc(Cl)cc7Cl)cc65)CCO4)cc3)C2)CN1"
measurename = "cIAP2 BIR3 vs BIR2 separation window"
recordedmeasurement = "++ (1,000>FS>100)"

[[record]]
structurestring = "CC(C)c1ccccc1Cc1cc2c([nH]c1=O)C(C)(C)CN2C(=O)CN1C[C@@H](C)NC[C@@H]1CN1CCO[C@H](C(=O)NCc2ccc(CNC(=O)[C@@H]3CN(C[C@H]4CN[C@H](C)CN4CC(=O)N4CC(C)(C)c5[nH]c(=O)c(Cc6ccccc6C(C)C)cc54)CCO3)cc2)C1"
measurename = "cIAP2 BIR3 vs BIR2 separation window"
recordedmeasurement = "+++ (10,000>FS>1,000)"

[[record]]
structurestring = "C[C@@H]1CN(CC(=O)N2CC(C)(C)c3[nH]c(=O)c(Cc4ccc(F)cc4)cc32)[C@@H](CN2CCN(CCc3cn(CCC(=O)N4CCN(C[C@H]5CN[C@H](C)CN5CC(=O)N5CC(C)(C)c6[nH]c(=O)c(Cc7ccc(F)cc7)cc65)[C@H](C)C4)nn3)C[C@H]2C)CN1"
measurename = "cIAP2 BIR3 vs BIR2 separation window"
recordedmeasurement = "+++ (10,000>FS>1,000)"

[[record]]
structurestring = "C[C@@H]1CN(CC(=O)N2CC(C)(C)c3[nH]c(=O)c(Cc4ccc(F)cc4)cc32)[C@@H](CN2CCN(C(=O)CCCCCCCCC(=O)N3CCN(C[C@H]4CN[C@H](C)CN4CC(=O)N4CC(C)(C)c5[nH]c(=O)c(Cc6ccc(F)cc6)cc54)[C@H](C)C3)C[C@H]2C)CN1"
measurename = "cIAP2 BIR3 vs BIR2 separation window"
recordedmeasurement = "++ (1,000>FS>100)"

[[record]]
structurestring = "C[C@@H]1CN(CC(=O)N2CC(C)(C)c3[nH]c(=O)c(Cc4ccc(F)cc4)cc32)[C@@H](CN2CCC(CN(C)C(=O)c3ccc(C(=O)N(C)CC4CCN(C[C@H]5CN[C@H](C)CN5CC(=O)N5CC(C)(C)c6[nH]c(=O)c(Cc7ccc(F)cc7)cc65)CC4)cc3)CC2)CN1"
measurename = "cIAP2 BIR3 vs BIR2 separation window"
recordedmeasurement = "+++ (10,000>FS>1,000)"

[[record]]
structurestring = "C[C@@H]1CN(CC(=O)N2CC(C)(C)c3[nH]c(=O)c(Cc4ccc(F)cc4)cc32)[C@@H](CN2CCO[C@H](C(=O)NCCCN3CCN(CCCNC(=O)[C@@H]4CN(C[C@H]5CN[C@H](C)CN5CC(=O)N5CC(C)(C)c6[nH]c(=O)c(Cc7ccc(F)cc7)cc65)CCO4)CC3)C2)CN1"
measurename = "cIAP2 BIR3 vs BIR2 separation window"
recordedmeasurement = "+++ (10,000>FS>1,000)"

[[record]]
structurestring = "C[C@@H]1CN(CC(=O)N2CC(C)(C)c3[nH]c(=O)c(Cc4ccc(F)cc4)cc32)[C@@H](CN2CCO[C@H](C(=O)NCCOCCOCCOCCNC(=O)[C@@H]3CN(C[C@H]4CN[C@H](C)CN4CC(=O)N4CC(C)(C)c5[nH]c(=O)c(Cc6ccc(F)cc6)cc54)CCO3)C2)CN1"
measurename = "cIAP2 BIR3 vs BIR2 separation window"
recordedmeasurement = "+++ (10,000>FS>1,000)"

[[record]]
structurestring = "C[C@@H]1CN(CC(=O)N2CC(C)(C)c3[nH]c(=O)c(Cc4ccc(Cl)cc4C(F)(F)F)cc32)[C@@H](CN2CCO[C@H](C(=O)NCc3ccc(CNC(=O)[C@@H]4CN(C[C@H]5CN[C@H](C)CN5CC(=O)N5CC(C)(C)c6[nH]c(=O)c(Cc7ccc(Cl)cc7C(F)(F)F)cc65)CCO4)cc3)C2)CN1"
measurename = "cIAP2 BIR3 vs BIR2 separation window"
recordedmeasurement = "+++ (10,000>FS>1,000)"


// below: cIAP2 BIR3 vs BIR2 separation window requested for another compound
Exercise: Specify reported cIAP2 BIR3 vs BIR2 separation window for the compound shown: "C[C@@H]1CN(CC(=O)N2CC(C)(C)c3[nH]c(=O)c(Cc4ccc(F)cc4)cc32)[C@@H](CN2CCO[C@H](C(=O)NCCN3CCN(C(=O)[C@@H]4CN(C[C@H]5CN[C@H](C)CN5CC(=O)N5CC(C)(C)c6[nH]c(=O)c(Cc7ccc(F)cc7)cc65)CCO4)CC3)C2)CN1"
Solution: +++ (10,000>FS>1,000)

###

Biological target: cIAP2-BIR2 (Homo sapiens (Human), UniProt Q13489)
Sequence (Q13489 158-242): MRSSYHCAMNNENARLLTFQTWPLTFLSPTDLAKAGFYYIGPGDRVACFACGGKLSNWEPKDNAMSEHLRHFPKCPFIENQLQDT
Experiment: BIR binding assay (FRET competition), cIAP2 BIR2
Description: The BIR domain binding assays are FRET based competition assays that utilize His-tagged versions of each of the BIR2 and BIR3 domains from cIAP1, cIAP2, and XIAP (each domain assayed separately) each at a custom optimal concentration and a probe, 200 nM SMAC/DIABLO peptide […] labelled with AlexaFluor647 (part #crb 1110326h, Discovery Peptides). The assay is conducted in 50 mM HEPES, […], 1 mM CHAPS, 5% Glycerol, 1 mM DTT, in dI water with a final pH of 7.4 and final volume of 20 uL. […]
measureName: IC50

Here is how some compounds turned out for IC50.
[[record]]
compound = "C[C@@H]1CN(CC(=O)N2CC(C)(C)c3[nH]c(=O)c(Cc4ccc(F)cc4)cc32)[C@@H](CN2CCC(CN(C)C(=O)Cc3ccc(C(=O)N(C)CC4CCN(C[C@H]5CN[C@H](C)CN5CC(=O)N5CC(C)(C)c6[nH]c(=O)c(Cc7ccc(F)cc7)cc65)CC4)cc3)CC2)CN1"
recordedmeasurement = "3.16 to 10 µM"

[[record]]
compound = "C[C@@H]1CN(CC(=O)N2CC(C)(C)c3[nH]c(=O)c(Cc4ccc(F)cc4F)cc32)[C@@H](CN2CCO[C@H](COc3cccc(OC[C@@H]4CN(C[C@H]5CN[C@H](C)CN5CC(=O)N5CC(C)(C)c6[nH]c(=O)c(Cc7ccc(F)cc7F)cc65)CCO4)c3)C2)CN1"
recordedmeasurement = "3.16 to 10 µM"

[[record]]
compound = "C[C@@H]1CN(CC(=O)N2CC(C)(C)c3c2cc(Cc2ccc(F)cc2)c(=O)n3C)[C@@H](CN2CCO[C@H](COc3ccc(Cc4ccc(OC[C@@H]5CN(C[C@H]6CN[C@H](C)CN6CC(=O)N6CC(C)(C)c7c6cc(Cc6ccc(F)cc6)c(=O)n7C)CCO5)cc4)cc3)C2)CN1"
recordedmeasurement = "10 to 51.3 µM"

[[record]]
compound = "Cc1ccc(Oc2cc3c([nH]c2=O)C(C)(C)CN3C(=O)CN2C[C@@H](C)NC[C@@H]2CN2CCO[C@H](C(=O)NCc3ccc(CNC(=O)[C@@H]4CN(C[C@H]5CN[C@H](C)CN5CC(=O)N5CC(C)(C)c6[nH]c(=O)c(Oc7ccc(C)cc7)cc65)CCO4)cc3)C2)cc1"
recordedmeasurement = "3.16 to 10 µM"

[[record]]
compound = "C[C@@H]1CN(CC(=O)N2CC(C)(C)c3[nH]c(=O)c(Cc4ccc(F)cc4)cc32)[C@@H](CN2CCO[C@H](C(=O)NCC(C)(C)CNC(=O)[C@@H]3CN(C[C@H]4CN[C@H](C)CN4CC(=O)N4CC(C)(C)c5[nH]c(=O)c(Cc6ccc(F)cc6)cc54)CCO3)C2)CN1"
recordedmeasurement = "1 to 3.16 µM"

[[record]]
compound = "C[C@@H]1CN(CC(=O)N2CC(C)(C)c3[nH]c(=O)c(Cc4ccc(F)cc4)cc32)[C@@H](CN2CCN(C(=O)COCCOCC(=O)N3CCN(C[C@H]4CN[C@H](C)CN4CC(=O)N4CC(C)(C)c5[nH]c(=O)c(Cc6ccc(F)cc6)cc54)[C@H](C)C3)C[C@H]2C)CN1"
recordedmeasurement = "1 to 3.16 µM"


// switching to the query compound
Exercise: Tell us which IC50 value is on record for C[C@@H]1CN(CC(=O)N2CC(C)(C)c3[nH]c(=O)c(Cc4ccc(F)cc4)cc32)[C@@H](CN2CCN(C(=O)COCCOCCOCC(=O)N3CCN(C[C@H]4CN[C@H](C)CN4CC(=O)N4CC(C)(C)c5[nH]c(=O)c(Cc6ccc(F)cc6)cc54)[C@H](C)C3)C[C@H]2C)CN1 (stereo in doubt)
Solution: 0.0224 to 1 µM

Value source: patent US20250326771A1
